# procedure_text: amyloid nucleation score (Sup35N fusion, yeast selection) (log enrichment); library NNK3; higher = more nucleation; inactive = no reads after selection;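 note: zero at mode of non-aggregating sequences after 7 days selection at 30°C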
Classify as follows. Reported amyloid nucleation score greater than or equal to 0.7: Y. Reported amyloid nucleation score below: N.

# count of solved cases: 6
[
  {
    "substance": "SLSATCLCTVMSTNFIFYVF",
    "discrete_label": "N"
  },
  {
    "substance": "IVYMAATKLMVVNSLCNGRG",
    "discrete_label": "Y"
  },
  {
    "substance": "DLSVYYVLLFVCDGL",
    "discrete_label": "N"
  },
  {
    "substance": "MSQCFVCRFAFLIN",
    "discrete_label": "Y"
  },
  {
    "substance": "LIYLYWGLFVTSNSLETCR",
    "discrete_label": "Y"
  },
  {
    "substance": "SICCMWMWMACAIKFQNTRR",
    "discrete_label": "N"
  }
]

Reported amyloid nucleation score reaches at least 0.7 for SKESISLECIHRVWFCGTGL ?
N

Reported amyloid nucleation score reaches at least 0.7 for TSMSGDVHVVYVVVEHVKPP ?
Y
